Biological target: Gonadotropin-releasing hormone receptor (Homo sapiens)
Assay: Human gonadotropin-releasing hormone receptor (GnRHR) small molecule agonists, calcium flux assay in GnRHR-HEK293 cells (AID 1920063); note: nearly all actives have a fitted effect of over 35% in size
Settings: calcium flux fluorescence, agonist mode; series mostly up to 57.6 µM
Excerpt: National Center for Advancing Translational Sciences [NCATS] Division of Preclinical Innovation [DPI] U.S. Environmental Protection Agency [EPA] National Institutes of Environmental Health Sciences [NIEHS] National Toxicology Program [NTP] U.S. Food and Drug Administration [FDA] […] GnRHR-HEK293 cells developed by Codex Corp contain human GnRHR reporter gene, which was stably integrated into HEK 293 cells. The compound activation can be detected by fluorescence intensity via calcium flux assay. […]
Active and inactive are the calls of the source. Calls come from the whole dose curve.
endpoint: activity change

>>> val("COC(/C=C(\\C)CCC=C(C)C)OC")
"inactive"
>>> val("COc1cc(C=O)ccc1OC(=O)C(C)C")
"inactive"
>>> val("C1=COCCC1")
"inactive"
>>> val("CCCCCCCC(=O)OCCCCCC")
"inactive"
>>> val("CC(C)(C)S")
"inactive"

activity change for Cc1ccc(C)o1 is inactive

activity change for CC(C)(C)CC(C)(C)c1ccc(O)c(-n2nc3ccccc3n2)c1 is inactive
